Assay: Cell Proliferation Assay against the TMD8 Cell Line (AID 651645);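 further: cells exposed to compound for 48 h before reading; 100% = DMSO and 0% = 9.2 µM bortezomib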
Conditions: TMD8 DLBCL cell line proliferation/viability; at 46.1 µM (top of the series) unless noted
# label = bin(measured viability (% of control)), where bins are range 1 (below 60%), range 2 (60% to below 80%), range 3 (80% or more)

Request: Any idea which band `NC(=O)c1ccc(-c2nc(-c3ccc4c(c3)OCO4)c(-c3ccccn3)[nH]2)cc1` is in?
Response: range 3

Request: Any idea which band `CCc1cncnc1N1CCN(Cc2nc3ccc(C(F)(F)F)cc3[nH]2)CC1` is in?
Response: range 1

Request: Any idea which band `CC[C@@H](C)[C@H](NC(=O)[C@H](CC1CCCCC1)NC(=O)c1ccno1)C(=O)N1CCC2(CCc3ccccc32)CC1` is in?
Response: range 2

Request: Any idea which band `COc1c(Cl)cc2c([nH]c3cnccc32)c1NC(=O)c1cccnc1C` is in?
Response: range 2

Request: Any idea which band `O=C(O)c1ccc(-c2c[nH]c3ccc(-c4ccccc4)cc23)cc1C1CCCC1` is in?
Response: range 3

Request: Any idea which band `Cc1csc(NC(=O)c2sc3nc4c(c(C(F)(F)F)c3c2N)CCC4)n1` is in?
Response: range 2

Request: Any idea which band `COc1ccc(CCN2CCN(CCCc3ccccc3)CC2)cc1OC` is in?
Response: range 3

Request: Any idea which band `COc1ccccc1-c1cccc(-c2c(O)c3cc(C#N)c(Cl)cc3[nH]c2=O)c1` is in?
Response: range 3

Request: Any idea which band `Cc1cc(C=c2sc3nc4ccccc4n3c2=O)c(C)n1-c1ccccc1` is in?
Response: range 1

Request: Any idea which band `CNC(=O)c1ccccc1Sc1ccc2c(/C=C/c3ccccn3)n[nH]c2c1` is in?
Response: range 1

Request: Any idea which band `Cc1c(CN2CCN(C(=O)C(C)C)CC2)sc2c(N3CCOCC3)nc(-c3cnc(N)nc3)nc12` is in?
Response: range 1

Request: Any idea which band `CCCS(=O)(=O)Nc1ccc(F)c(C(=O)c2c[nH]c3ncc(-c4ccc(Cl)cc4)cc23)c1F` is in?
Response: range 1

Request: Any idea which band `Cc1cc2c(C(C)C)c(O)c(O)c(C=O)c2c(O)c1-c1c(C)cc2c(C(C)C)c(O)c(O)c(C=O)c2c1O` is in?
Response: range 1

Request: Any idea which band `CS(=O)(=O)c1ccc(C(=O)Nc2ccc(Cl)c(-c3ccccn3)c2)c(Cl)c1` is in?
Response: range 3

Request: Any idea which band `O=C1[C@H](Cc2ccc(O)cc2)N2C(=O)CCN(C(=O)NCc3ccccc3)[C@H]2CN1Cc1cccc2ccccc12` is in?
Response: range 1

Request: Any idea which band `O=c1ncn2nc(Sc3ccc(F)cc3F)ccc2c1-c1c(Cl)cccc1Cl` is in?
Response: range 2

Request: Any idea which band `S=C(NCc1ccc2c(c1)OCO2)N1CCN(c2ncnc3c2oc2ccccc23)CC1` is in?
Response: range 1

Request: Any idea which band `COc1cc2c(cc1OC)CN(CCc1ccc(NC(=O)c3cccc4c(=O)c5cccc(OC)c5[nH]c34)cc1)CC2` is in?
Response: range 1

Request: Any idea which band `O=C(C1CC1)N1CC[C@@H](Cn2c(-c3ccc(-c4ccc5occc5c4)cc3)nc3cnccc32)C1` is in?
Response: range 1

Request: Any idea which band `Cc1ccc(-n2nc(C(C)(C)C)cc2NC(=O)Nc2ccc(OCCN3CCOCC3)c3ccccc23)cc1` is in?
Response: range 2

Request: Any idea which band `CCN(c1ccccc1)c1cc(NC)[n+](C)c(C)n1` is in?
Response: range 3

Request: Any idea which band `C[C@]12CC[C@H](O)CC1=CC[C@@H]1[C@H]2CC[C@]2(C)C(c3cccnc3)=CC[C@H]12` is in?
Response: range 1

Request: Any idea which band `CN(C)C(=O)c1ccc(S(=O)(=O)c2ccc(NC(=O)[C@@](C)(O)C(F)(F)F)c(Cl)c2)cc1` is in?
Response: range 2

Request: Any idea which band `COc1ccc(-c2c(-c3ccc(O)cc3O)n[nH]c2C)cc1` is in?
Response: range 3

Request: Any idea which band `O=C(Nc1nc2ccccc2n1CCN1CCOCC1)c1cccc([N+](=O)[O-])c1` is in?
Response: range 2

Request: Any idea which band `Clc1ccc(Nc2nnc(Cc3ccncc3)c3ccccc23)cc1` is in?
Response: range 3

Request: Any idea which band `CC(C)(N)C(=O)N[C@H](COCc1ccccc1)C(=O)N1CCC2(CC1)CN(S(C)(=O)=O)c1ccccc12` is in?
Response: range 1

Request: Any idea which band `O=C(O)CCc1ccc(NCc2cccc(Oc3ccccc3)c2)cc1` is in?
Response: range 3

Request: Any idea which band `N#Cc1ccc(C(c2ccc(C#N)cc2)n2cncn2)cc1` is in?
Response: range 2

Request: Any idea which band `O=C(O)[C@@H](c1ccc(OCc2ccc3ccccc3n2)cc1)C1CCCC1` is in?
Response: range 3

Request: Any idea which band `CCOc1ccn(-c2ccc(F)cc2)c(=O)c1C(=O)Nc1ccc(Oc2ccnc(N)c2Cl)c(F)c1` is in?
Response: range 1

---

Biological target: Chromobox protein homolog 1 (Homo sapiens) (UniProt P83916)
Sequence (P83916 whole entry, looked up): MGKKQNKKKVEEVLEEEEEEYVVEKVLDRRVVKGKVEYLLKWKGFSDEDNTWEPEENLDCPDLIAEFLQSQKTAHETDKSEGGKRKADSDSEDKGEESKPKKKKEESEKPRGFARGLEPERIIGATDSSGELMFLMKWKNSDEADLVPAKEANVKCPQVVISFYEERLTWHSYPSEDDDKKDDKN
Assay: qHTS Validation Assay for Inhibitors of HP1-beta Chromodomain Interactions with Methylated Histone Tails (AID 488953); further: nearly all actives have a fitted effect of over 50% in size
Details: HP1-beta chromodomain / methylated histone peptide binding assay; series mostly up to 114 µM
Records with an inconclusive call do not appear. Calls of active or inactive are those of the source. Calls follow the shape of the dose curve; as a rule, active = well fitted inhibition curve with a large enough effect; inconclusive = small, poorly fitted or top-dose-only effect; inactive = no such curve, though single readings can be large or run the other way.
Answer with one of the outcomes given here: class 1 (active), class 0 (inactive)

Request: Recorded test call requested for `Nc1ccc(S(=O)(=O)Nc2ccnn2-c2ccccc2)cc1`
Response: class 0

Request: Recorded test call requested for `CC(C)(Sc1ccc(CCN(CCCCC2CCCCC2)C(=O)NC2CCCCC2)cc1)C(=O)O`
Response: class 1

Request: Recorded test call requested for `NCCc1ccc(O)c(O)c1`
Response: class 0

Request: Recorded test call requested for `NC[C@H](O)c1ccc(O)c(O)c1`
Response: class 0

Request: Recorded test call requested for `Cc1oncc1C(=O)Nc1ccc(C(F)(F)F)cc1`
Response: class 0

Request: Recorded test call requested for `O=c1n(CCCN2CCN(c3cccc(Cl)c3)CC2)nc2ccccn12`
Response: class 0

Request: Recorded test call requested for `O=NN(CCCl)C(=O)NCCCl`
Response: class 0

Request: Recorded test call requested for `CN1CCN(CCCN2c3ccccc3Sc3ccc(C(F)(F)F)cc32)CC1`
Response: class 1

Request: Recorded test call requested for OC(CCN1CCCCC1)(c1ccccc1)C1CC2C=CC1C2 (centres undefined)
Response: class 0

Request: Recorded test call requested for `NC(=O)c1cnccn1`
Response: class 0

Request: Recorded test call requested for `O=c1[nH]cnc2[nH]ncc12`
Response: class 0

Request: Recorded test call requested for `CCCC(CCC)C(=O)O`
Response: class 0

Request: Recorded test call requested for Cc1ccccc1C(OCCN(C)C)c1ccccc1 (centres undefined)
Response: class 0

Request: Recorded test call requested for `NC(N)=NC(=O)c1nc(Cl)c(N)nc1N`
Response: class 0

Request: Recorded test call requested for `Nc1nc2c(ncn2COCCO)c(=O)[nH]1`
Response: class 0

Request: Recorded test call requested for `Nc1nc2ccc(OC(F)(F)F)cc2s1`
Response: class 0

Request: Recorded test call requested for `Cc1cnc(NC(=O)C2=C(O)c3ccccc3S(=O)(=O)N2C)s1`
Response: class 0

Request: Recorded test call requested for OC(CN1CCC(Cc2ccc(F)cc2)CC1)c1ccc(Cl)cc1 (centres undefined)
Response: class 0

Request: Recorded test call requested for `Cc1cccc(-c2[nH]c(C(C)(C)C)nc2-c2ccc3nccnc3c2)n1`
Response: class 0

Request: Recorded test call requested for `O=C1CCc2cc(OCCCCc3nnnn3C3CCCCC3)ccc2N1`
Response: class 0

Request: Recorded test call requested for Oc1ccc(C2CNCCc3c2cc(O)c(O)c3Cl)cc1 (centres undefined)
Response: class 1

Request: Recorded test call requested for `Cc1[nH]c(=O)c(C#N)cc1-c1ccc2nccn2c1`
Response: class 0

Request: Recorded test call requested for `CCCCNc1cc(C(=O)O)cc(S(N)(=O)=O)c1Oc1ccccc1`
Response: class 0

Request: Recorded test call requested for CCN(CC)CCCC(C)Nc1ccnc2cc(Cl)ccc12 (centres undefined)
Response: class 0

---

Test system: HEK293T
Assay: qHTS assay to identify novel small-molecules to repurpose for Merkel cell carcinoma treatment (AID 1296009); further: nearly all actives have a fitted effect of over 60% in size
Conditions: MCC and control cell lines, CellTiter-Glo viability, 72 h; at 44.8 µM (top of the series)
Records with an inconclusive call do not appear. Active and inactive are the calls of the source. Calls follow the shape of the dose curve; as a rule, active = well fitted inhibition curve with a large enough effect; inconclusive = small, poorly fitted or top-dose-only effect; inactive = flat fitted curve, though single readings scatter.
value_kind: outcome

# compound, outcome
measured = [
    ("CC(C=CC1=C(C)CCCC1(C)C)=CC=CC(C)=CC(=O)O", "inactive"),
    ("CC(c1cc2ccccc2s1)N(O)C(N)=O (stereo not given)", "inactive"),
    ("Cc1cn[nH]c1", "inactive"),
    ("COc1ccc([C@@H]2CC(=O)c3c(O)cc(O[C@@H]4O[C@H](CO[C@@H]5O[C@@H](C)[C@H](O)[C@@H](O)[C@@H]5O)[C@@H](O)[C@H](O)[C@@H]4O)cc3O2)cc1O", "inactive"),
]

Request: Entry under review: `CCCc1nc2c(C)cc(-c3nc4ccccc4n3C)cc2n1Cc1ccc(-c2ccccc2C(=O)O)cc1` . Reported outcome?
Response: inactive

Values compiled from PubChem BioAssay (NCATS).
